Every entry's value here was drawn from patent US20240092930A1.

Target: T1, human Trop-2 on the surface of cells (CHO/Trop-2 cells; BxPC-3 cells; NCI-N87 cells) (human, UniProt P09758 27-323)
T1 sequence (looked up): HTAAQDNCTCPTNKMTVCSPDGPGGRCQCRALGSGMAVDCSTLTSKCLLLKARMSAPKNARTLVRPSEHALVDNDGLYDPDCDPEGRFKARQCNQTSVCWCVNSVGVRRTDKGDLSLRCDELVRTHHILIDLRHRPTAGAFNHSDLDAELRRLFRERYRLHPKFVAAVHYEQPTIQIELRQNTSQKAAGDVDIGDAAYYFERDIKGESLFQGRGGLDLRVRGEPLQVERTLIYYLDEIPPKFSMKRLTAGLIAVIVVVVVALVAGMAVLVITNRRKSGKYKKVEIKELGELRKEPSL
Assay: cell-based or functional assay
reported.metric: Internalization percentage, 1 h, NCI-N87 cells, FACS (%)

INSERT INTO measurements (binder, unit_of_measure, reported) VALUES
  ('Sacituzumab (antibody, human IgG1, kappa, V domains shown, expressed in HEK293; also called control antibody Sacituzumab; Saituzumab) VH: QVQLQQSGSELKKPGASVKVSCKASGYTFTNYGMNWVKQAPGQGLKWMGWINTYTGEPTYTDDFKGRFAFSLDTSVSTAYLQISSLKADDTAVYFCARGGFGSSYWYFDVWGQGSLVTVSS VL: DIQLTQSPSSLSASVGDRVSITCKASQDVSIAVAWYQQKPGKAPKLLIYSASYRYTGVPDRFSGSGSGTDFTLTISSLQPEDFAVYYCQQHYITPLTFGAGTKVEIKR', '%', 49.3),
  ('chimeric antibody ch4-3 (antibody, human IgG1, V domains shown) VH: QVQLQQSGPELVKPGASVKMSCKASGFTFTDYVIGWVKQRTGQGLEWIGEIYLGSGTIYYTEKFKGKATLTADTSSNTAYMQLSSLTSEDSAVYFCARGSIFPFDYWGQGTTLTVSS VL: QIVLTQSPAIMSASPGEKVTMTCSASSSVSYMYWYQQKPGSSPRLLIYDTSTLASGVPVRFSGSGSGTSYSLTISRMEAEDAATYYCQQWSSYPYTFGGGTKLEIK', '%', 50.2);
